test: in vivo; conditions: mouse, AR42J tumor, iv, 0.2 nmol/mouse, total radioactivity
reported-property: tissue uptake at 2 h

[in] Name the reported tissue uptake at 2 h value associated with the compound C[C@@H](O)[C@@H]1NC(=O)[C@H](CCCCN)NC(=O)[C@@H](Cc2c[nH]c3ccccc23)NC(=O)[C@H](Cc2ccc(O)cc2)NC(=O)[C@@H](NC(=O)[C@@H](Cc2ccccc2)NC(=O)CN2CCN(CC(=O)O)CCN(CC(=O)O)CCN(CC(=O)O)CC2)CSSC[C@@H](C(=O)N[C@H](CO)[C@@H](C)O)NC1=O [DOTATOC, DOTA-[Tyr^3]-octreotide]
[out] ~15 %ID/g

----------
experiment: in vivo; details: mouse, liver, iv, total radioactivity
reported-property: tissue uptake at 2 h

[in] GET /values?readout=tissue uptake at 2 h&item= C[C@@H](O)[C@@H]1NC(=O)[C@H](CCCCN)NC(=O)[C@@H](Cc2c[nH]c3ccccc23)NC(=O)[C@H](Cc2ccc(O)cc2)NC(=O)[C@@H](NC(=O)[C@@H](Cc2ccccc2)NC(=O)CN2CCN(CC(=O)O)CCN(CC(=O)O)CCN(CC(=O)O)CC2)CSSC[C@@H](C(=O)N[C@H](CO)[C@@H](C)O)NC1=O [DOTATOC, DOTA-[Tyr^3]-octreotide]
[out] ~0.2 %ID/g
